- TARGET_OR_SYSTEM: 5-hydroxytryptamine receptor 2A (Homo sapiens) (UniProt P28223)
- Sequence (P28223 whole entry, looked up): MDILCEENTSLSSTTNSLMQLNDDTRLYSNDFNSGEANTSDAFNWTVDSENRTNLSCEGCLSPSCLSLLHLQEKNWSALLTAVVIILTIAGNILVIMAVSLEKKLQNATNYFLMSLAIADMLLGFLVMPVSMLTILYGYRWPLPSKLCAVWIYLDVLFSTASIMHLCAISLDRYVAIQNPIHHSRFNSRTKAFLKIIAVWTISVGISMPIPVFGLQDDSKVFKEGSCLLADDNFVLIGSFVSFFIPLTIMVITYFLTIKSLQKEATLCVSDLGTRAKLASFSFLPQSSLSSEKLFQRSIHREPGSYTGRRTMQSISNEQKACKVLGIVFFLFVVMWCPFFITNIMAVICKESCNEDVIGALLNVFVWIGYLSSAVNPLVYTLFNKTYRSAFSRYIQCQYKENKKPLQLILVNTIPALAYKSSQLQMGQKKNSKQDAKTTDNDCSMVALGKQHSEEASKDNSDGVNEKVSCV
- TEST_NAME: 5-hydroxytryptamine receptor 2A (HTR2A) small molecule antagonists, cell-based qHTS assay (AID 1963586); note: nearly all actives have a fitted effect of over 45% in size
- CONDITION_LABEL: HTR2A-CHO cells, DOI-induced calcium flux, fluorescence; series mostly up to 61.5 µM
Records with an inconclusive call do not appear. Activity calls are given as the source filed them. Calls come from the whole dose curve.
Outcome codes: active, inactive

{"columns": ["COMPOUND", "CLASS_NAME"],
 "data": [
  ["Cc1ccc(C)c(S(=O)(=O)O)c1", "inactive"],
  ["O=C(O)c1ccc(O)cc1", "inactive"],
  ["O=C(OCc1ccccc1)c1ccc(O)cc1", "active"],
  ["C=CC(C)CCCC(C)(C)O (stereo unspecified)", "inactive"],
  ["C=C(C)C(=O)O", "inactive"],
  ["c1ccc2[nH]ccc2c1", "inactive"],
  ["CCCCOCCOCCO", "inactive"],
  ["Cc1cc(C)c(O)c(C)c1", "inactive"],
  ["COc1c(Cl)c(Cl)c(Cl)c(Cl)c1Cl", "inactive"],
  ["CC(=O)Nc1ccc2c(c1)Cc1cc(NC(C)=O)ccc1-2", "inactive"],
  ["c1ccc2cc(Nc3ccc(Nc4ccc5ccccc5c4)cc3)ccc2c1", "inactive"],
  ["Oc1cccc(O)c1", "inactive"],
  ["NC(N)=O", "inactive"],
  ["CC(=O)OC/C=C(\\C)CCC=C(C)C", "inactive"],
  ["O=C(O)c1cccc(C(=O)O)c1", "inactive"],
  ["c1ccc(Oc2ccccc2)cc1", "inactive"],
  ["Cc1ncc([N+](=O)[O-])n1C", "inactive"],
  ["C=CC(=O)OCCOCCOCCOCCOC(=O)C=C", "inactive"],
  ["Nc1ccc(C(=O)O)cc1", "inactive"],
  ["O=C(O)c1cccc([N+](=O)[O-])c1", "inactive"],
  ["CC1(C)O[C@@H]2[C@@H](CO[C@@]3(COS(N)(=O)=O)OC(C)(C)O[C@@H]23)O1", "inactive"],
  ["C=CC(=O)OCCCC", "inactive"],
  ["Nc1nc2ncc(CNc3ccc(C(=O)N[C@@H](CCC(=O)O)C(=O)O)cc3)nc2c(=O)[nH]1", "inactive"],
  ["Nc1ncnc2nc[nH]c12", "inactive"],
  ["CSc1ccc(Cl)cc1", "inactive"],
  ["CCN(CCN)c1cccc(C)c1", "active"],
  ["CC(=O)CCC(=O)O", "inactive"],
  ["CCOC(=O)/C=C\\C(=O)OCC", "inactive"],
  ["CN1C(=O)CC[C@H]1c1cccnc1", "inactive"],
  ["Cc1cccc(O)c1", "inactive"],
  ["CCC(=O)O", "inactive"],
  ["O=C1CCCC1", "inactive"],
  ["CCCCCCCCCCCCCCCCO", "inactive"],
  ["CC(=O)OC(C)(C)C1CC=C(C)CC1 (stereo unspecified)", "inactive"],
  ["CCN(CC)C(=O)c1cccc(C)c1", "inactive"],
  ["C=C(CC(=O)O)C(=O)O", "inactive"],
  ["CCCC(C)=O", "inactive"],
  ["CC1(C)C(=O)N(Cl)C(=O)N1Cl", "inactive"],
  ["C[N+](C)(C)CCCCCC[N+](C)(C)C", "inactive"],
  ["C1CNCCN1", "inactive"],
  ["C=CCCCCCCCCCC", "inactive"],
  ["O=C(O)CS", "inactive"],
  ["NC(=O)OCC(COC(N)=O)c1ccccc1", "inactive"],
  ["CCCCC(CC)C(=O)O (stereo unspecified)", "inactive"],
  ["CCCC(O)C(CC)CO (stereo unspecified)", "inactive"],
  ["O=c1cc[nH]c(=S)[nH]1", "inactive"],
  ["O=Cc1ccc(CO)o1", "inactive"],
  ["CC(C)=CCCC(C)CCO (stereo unspecified)", "inactive"],
  ["O=[N+]([O-])c1cc(C(F)(F)F)ccc1Cl", "inactive"],
  ["C#CC1(O)CC[C@H]2[C@@H]3CCC4=CCCC[C@@H]4[C@H]3CC[C@@]21C (stereo partly specified)", "inactive"],
  ["CCCOC(=O)c1ccccc1", "inactive"],
  ["O=C(O)CCCCCCCC(=O)O", "inactive"],
  ["CCCCOCCOC(=O)c1ccccc1C(=O)OCCOCCCC", "inactive"],
  ["Nc1ccc(S(=O)(=O)c2ccc(N)cc2)cc1", "inactive"],
  ["OCc1cccnc1", "inactive"],
  ["CC(=O)CC(=O)N(C)C", "inactive"],
  ["CC1COC(=O)O1 (stereo unspecified)", "inactive"],
  ["OC[C@]1(O)OC[C@@H](O)[C@H](O)[C@@H]1O", "inactive"],
  ["CCC(=O)/C=C/C1C(C)=CCCC1(C)C (stereo unspecified)", "inactive"],
  ["C=CC(C)(C)C", "inactive"],
  ["CCc1cccc(C)c1N", "inactive"],
  ["Cc1cc(C(C)(C)C)c(O)c(C(C)(C)C)c1", "inactive"],
  ["CCOCCOCCO", "inactive"],
  ["c1ccc2c(c1)[nH]c1ccccc12", "inactive"],
  ["CN(C)Cc1cc(CN(C)C)c(O)c(CN(C)C)c1", "inactive"],
  ["[Na+]", "inactive"]
]}

// data source = PubChem BioAssay (Tox21)
